Provenance of the data: ChEMBL document CHEMBL1138251

Entries annotated with measured IC50
- System: Trypanosoma brucei rhodesiense
- PROTOCOL NOTES: Antiparasitic activity against Trypanosoma brucei rhodesiense STIB900 in blood
- Type: functional, organism-based
I only need the number, in µM, no unit after it.

Known results for molecules:
SMILES STR: O=C(CC(=O)c1ccc(Oc2ccccc2)cc1)CN1CCOCC1
NUMERIC RESULT: 18.9

SMILES STR: Nc1ccc(-n2nc(-c3ccc(Oc4ccccc4)cc3)cc2N2CCOCC2)cc1
NUMERIC RESULT: 10.3

Entry "Nc1ccc(Oc2ccc(-c3cc(N4CCOCC4)[nH]n3)cc2)cc1" ; IC50 = 17.7

Note to self: IC50 recorded for "O=C(CC(=O)C1CCOCC1)c1ccc(Oc2ccccc2)cc1" was 25.8

For reference, reported IC50 for "CSC(=CC(=O)c1ccc(Oc2ccccc2)cc1)SC" stands at 51.4

# IC50 (molecule: "c1ccc(Oc2ccc(-c3cc(N4CCOCC4)[nH]n3)cc2)cc1" ) is 1

====

# log10 IC50 per entry
- Tested on: Trypanosoma brucei rhodesiense
- PROTOCOL NOTES: Antiparasitic activity against Trypanosoma brucei rhodesiense STIB900 in blood
- Assay type: functional, organism-based
Please note: log10 values; quantity IC50; unit nM.

MOLECULE: Nc1nc(N)nc(Nc2ccc([As]3SCC(CO)S3)cc2)n1 (stereo not given)
log10 IC50: 1.00
//
MOLECULE: CC(C)(C)OC(=O)N1CCN(c2cc(-c3ccc(Oc4ccccc4)cc3)n[nH]2)CC1
log10 IC50: 3.46
//
MOLECULE: c1ccc(Oc2ccc(-c3cc(CN4CCOCC4)[nH]n3)cc2)cc1
log10 IC50: 3.61

Considering "c1ccc(Oc2ccc(-c3cc(N4CCNCC4)[nH]n3)cc2)cc1" , its log10 IC50 with Trypanosoma brucei rhodesiense was recorded as 3.04

Entry "O=[N+]([O-])c1ccc(Oc2ccc(-c3cc(N4CCOCC4)[nH]n3)cc2)cc1" , tested on Trypanosoma brucei rhodesiense, has a reported log10 IC50 of 3.64

====

- Test system: Plasmodium falciparum
- PROTOCOL NOTES: Antiparasitic activity against chloroquine, pyrimethamine-resistant Plasmodium falciparum K1 erythrocyte stage
pIC50: −log10 of the molar value.
MEASUREMENT KIND: pIC50

SMILES STR: CSC(=CC(=O)c1ccc(Oc2ccc([N+](=O)[O-])cc2)cc1)SC
pIC50: < 4.89

Entry "O=C(CC(=O)c1ccc(Oc2ccccc2)cc1)CN1CCOCC1" — recorded pIC50 = < 4.82

For reference, reported pIC50 for "c1ccc(Oc2ccc(-c3cc(N4CCNCC4)[nH]n3)cc2)cc1" stands at 5.18

Noted for "CSC(=CC(=O)c1ccc(Oc2ccccc2)cc1)SC" : its pIC50 reads < 4.82

Field pIC50 (entry "O=[N+]([O-])c1ccc(Oc2ccc(-c3cc(N4CCOCC4)[nH]n3)cc2)cc1" ) reads < 4.89

pIC50 in this record for "CCc1ccc(C(=O)CC(=O)C2CCOCC2)cc1" : < 4.72

// "CSC(=CC(=O)c1ccc([N+](=O)[O-])cc1)SC" : pIC50 value = < 4.74

Lab book: pIC50 of "CC(C)(C)OC(=O)N1CCN(c2cc(-c3ccc(Oc4ccccc4)cc3)n[nH]2)CC1" noted as 5.09

Per the records, this compound ( "c1ccc(Oc2ccc(-c3cc(N4CCOCC4)[nH]n3)cc2)cc1" ) has pIC50 equal to < 4.82

The compound listed as "c1ccc(Oc2ccc(-c3cc(N4CCOCC4)on3)cc2)cc1" has a reported pIC50 of 4.98

pIC50 reported for this compound "Nc1ccc(Oc2ccc(-c3cc(N4CCOCC4)[nH]n3)cc2)cc1" : < 4.85

====

IC50 listing for selected molecules.
- Test system: Plasmodium falciparum
- PROTOCOL NOTES: Antiparasitic activity against chloroquine, pyrimethamine-resistant Plasmodium falciparum K1 erythrocyte stage

SMILES STR: c1ccc(Oc2ccc(-c3cc(CN4CCOCC4)[nH]n3)cc2)cc1
IC50: > 14 µM
//
SMILES STR: Nc1ccc(-n2nc(-c3ccc(Oc4ccccc4)cc3)cc2N2CCOCC2)cc1
IC50: 6.5 µM
//
SMILES STR: O=C(CC(=O)C1CCOCC1)c1ccc(Oc2ccccc2)cc1
IC50: > 15 µM
//
SMILES STR: CCc1ccc(-c2cc(C3CCOCC3)[nH]n2)cc1
IC50: > 19 µM
//
SMILES STR: O=[N+]([O-])c1ccc(-n2nc(-c3ccc(Oc4ccccc4)cc3)cc2N2CCOCC2)cc1
IC50: 3.7 µM

Pending molecule:
For record "c1ccc(Oc2ccc(-c3cc(C4CCOCC4)[nH]n3)cc2)cc1" the listed IC50 is > 15 µM

====

- Tested on: L6
- PROTOCOL NOTES: Cytotoxicity against rat L6 cells
- Type: cell-based
pIC50: −log10 of the molar value.
Quick rule for you: pIC50 at 4 or higher means rule met, lower means rule not met.

// known answers, use as guide
SMILES STR: c1ccc(Oc2ccc(-c3cc(N4CCNCC4)[nH]n3)cc2)cc1
GROUP: rule met
//
SMILES STR: CCc1ccc(-c2cc(C3CCOCC3)[nH]n2)cc1
GROUP: rule not met
//
SMILES STR: O=[N+]([O-])c1ccc(-n2nc(-c3ccc(Oc4ccccc4)cc3)cc2N2CCOCC2)cc1
GROUP: rule not met
//
SMILES STR: CSC(=CC(=O)c1ccc([N+](=O)[O-])cc1)SC
GROUP: rule met

# evaluate next
IN: Does pIC50 meet or surpass 4 for "c1ccc(Oc2ccc(-c3cc(CN4CCOCC4)[nH]n3)cc2)cc1" ?
OUT: rule not met

====

Listing: log10 IC50 of selected compounds
- Tested on: Trypanosoma brucei rhodesiense
- PROTOCOL NOTES: Antiparasitic activity against Trypanosoma brucei rhodesiense STIB900 in blood
- Format: functional, organism-based
Values reflect log10 of reported IC50 (µM).

Past entries and their recorded results:
SMILES STR: CCc1ccc(-c2cc(C3CCOCC3)[nH]n2)cc1
log10 IC50: 1.46
//
SMILES STR: c1ccc(Oc2ccc(-c3cc(N4CCOCC4)on3)cc2)cc1
log10 IC50: 0.77
//
SMILES STR: c1ccc(Oc2ccc(-c3cc(C4CCOCC4)[nH]n3)cc2)cc1
log10 IC50: 0.51

Item: "CSC(=CC(=O)c1ccc([N+](=O)[O-])cc1)SC" | log10 IC50: 2.35

Measured log10 IC50 of "O=[N+]([O-])c1ccc(-n2nc(-c3ccc(Oc4ccccc4)cc3)cc2N2CCOCC2)cc1" : 1.46

Memo: "CSC(=CC(=O)c1ccc(Oc2ccc([N+](=O)[O-])cc2)cc1)SC" , reported log10 IC50: 1.66

"CCc1ccc(C(=O)CC(=O)C2CCOCC2)cc1" has a reported log10 IC50 of 1.32

====

- Test system: L6
- PROTOCOL NOTES: Cytotoxicity against rat L6 cells
- Format: cell-based
MEASUREMENT KIND: IC50 (µM)
Output spec: scalar in µM, unitless text.

SMILES STR: O=C(CC(=O)c1ccc(Oc2ccccc2)cc1)CN1CCOCC1
OUTPUT UNIT: µM
IC50: 112
//
SMILES STR: c1ccc(Oc2ccc(-c3cc(C4CCOCC4)[nH]n3)cc2)cc1
OUTPUT UNIT: µM
IC50: 89.6
//
SMILES STR: CCc1ccc(C(=O)CC(=O)C2CCOCC2)cc1
OUTPUT UNIT: µM
IC50: 202
//
SMILES STR: c1ccc(Oc2ccc(-c3cc(N4CCOCC4)[nH]n3)cc2)cc1
OUTPUT UNIT: µM
IC50: 61.6
//
SMILES STR: O=C(CC(=O)C1CCOCC1)c1ccc(Oc2ccccc2)cc1
OUTPUT UNIT: µM
IC50: 231
//
SMILES STR: CSC(=CC(=O)c1ccc(Oc2ccc([N+](=O)[O-])cc2)cc1)SC
OUTPUT UNIT: µM
IC50: 156
//
SMILES STR: c1ccc(Oc2ccc(-c3cc(N4CCOCC4)on3)cc2)cc1
OUTPUT UNIT: µM
IC50: 172
//
SMILES STR: CSC(=CC(=O)c1ccc(Oc2ccccc2)cc1)SC
OUTPUT UNIT: µM
IC50: 34.5

Measured IC50 for this entry "Nc1ccc(-n2nc(-c3ccc(Oc4ccccc4)cc3)cc2N2CCOCC2)cc1" on L6: 61.6

With L6 as the test system, "CC(C)(C)OC(=O)N1CCN(c2cc(-c3ccc(Oc4ccccc4)cc3)n[nH]2)CC1" showed IC50 of 30
